Assay: Metabolic stability in dog intestine S9 fraction assessed as compound remaining at 10 uM after 60 mins by HPLC analysis in absence of NADP
Format: ADME, tissue-based, Canis lupus familiaris
Conditions: read-out: Stability
Recorded remaining at 1 h, 10 µM for the following compounds
Note to self: number, then unit, no commentary.

Examples from the recorded data:
>  <Compound>
COC(=O)[C@H](C)NP(=O)(OC[C@H]1O[C@@H](n2cnc3c(=O)[nH]c(N)nc32)[C@](C)(O)[C@@H]1O)Oc1cccc2ccccc12 (some centres not stated)

>  <remaining at 1 h, 10 µM>
54%

$$$$
>  <Compound>
CC(C)[C@H](NP(=O)(OC[C@H]1O[C@@H](n2cnc3c(=O)[nH]c(N)nc32)[C@](C)(O)[C@@H]1O)Oc1cccc2ccccc12)C(=O)OCc1ccccc1 (some centres not stated)

>  <remaining at 1 h, 10 µM>
72%

$$$$
>  <Compound>
CC(C)C[C@H](NP(=O)(OC[C@H]1O[C@@H](n2cnc3c(=O)[nH]c(N)nc32)[C@](C)(O)[C@@H]1O)Oc1cccc2ccccc12)C(=O)OCc1ccccc1 (some centres not stated)

>  <remaining at 1 h, 10 µM>
33%

$$$$
>  <Compound>
C[C@H](NP(=O)(OC[C@H]1O[C@@H](n2cnc3c(=O)[nH]c(N)nc32)[C@](C)(O)[C@@H]1O)Oc1ccc2ccccc2c1)C(=O)OCc1ccccc1 (some centres not stated)

>  <remaining at 1 h, 10 µM>
27%

$$$$
>  <Compound>
C[C@H](NP(=O)(OC[C@H]1O[C@@H](n2cnc3c(=O)[nH]c(N)nc32)[C@](C)(O)[C@@H]1O)Oc1cccc2ccccc12)C(=O)OCC(C)(C)C (some centres not stated)

>  <remaining at 1 h, 10 µM>
56%

$$$$

Exam item: Which remaining at 1 h, 10 µM is reported for this compound? CC(C)OC(=O)[C@H](C)NP(=O)(OC[C@H]1O[C@@H](n2cnc3c(=O)[nH]c(N)nc32)[C@](C)(O)[C@@H]1O)Oc1cccc2ccccc12 (some centres not stated)
Marked response: 68%

Exam item: Which remaining at 1 h, 10 µM is reported for this compound? CC[C@H](C)[C@H](NP(=O)(OC[C@H]1O[C@@H](n2cnc3c(=O)[nH]c(N)nc32)[C@](C)(O)[C@@H]1O)Oc1cccc2ccccc12)C(=O)OCc1ccccc1 (some centres not stated)
Marked response: 96%

====

Test: Cytotoxicity against human HuH7 cells after 72 hrs by celltiter-glo assay
Type: cell-based, Huh-7
Recorded CC50 at 72 h for the following compounds

Examples from the recorded data:
>  <Compound>
C[C@H](NP(=O)(OC[C@H]1O[C@@H](n2cnc3c(=O)[nH]c(N)nc32)[C@](C)(O)[C@@H]1O)Oc1ccc2ccccc2c1)C(=O)OCc1ccccc1 (stereo partly specified)

>  <CC50 at 72 h>
> 50 µM

$$$$
>  <Compound>
CC(C)OC(=O)[C@H](C)NP(=O)(OC[C@H]1O[C@@H](n2cnc3c(=O)[nH]c(N)nc32)[C@](C)(O)[C@@H]1O)Oc1cccc2ccccc12 (stereo partly specified)

>  <CC50 at 72 h>
> 100 µM

$$$$
>  <Compound>
CC(OC(=O)[C@H](C)NP(=O)(OC[C@H]1O[C@@H](n2cnc3c(=O)[nH]c(N)nc32)[C@](C)(O)[C@@H]1O)Oc1cccc2ccccc12)c1ccccc1 (mixture of isomers)

>  <CC50 at 72 h>
> 100 µM

$$$$
>  <Compound>
CC(C)[C@H](NP(=O)(OC[C@H]1O[C@@H](n2cnc3c(=O)[nH]c(N)nc32)[C@](C)(O)[C@@H]1O)Oc1cccc2ccccc12)C(=O)OCc1ccccc1Cl (stereo partly specified)

>  <CC50 at 72 h>
> 100 µM

$$$$
>  <Compound>
COC(=O)[C@H](CCSC)NP(=O)(OC[C@H]1O[C@@H](n2cnc3c(=O)[nH]c(N)nc32)[C@](C)(O)[C@@H]1O)Oc1cccc2ccccc12 (stereo partly specified)

>  <CC50 at 72 h>
> 100 µM

$$$$

Please examine the following record next.
Exam item: Which CC50 at 72 h is reported for this compound? CCCCOC(=O)[C@H](C)NP(=O)(OC[C@H]1O[C@@H](n2cnc3c(=O)[nH]c(N)nc32)[C@](C)(O)[C@@H]1O)Oc1cccc2ccccc12 (stereo partly specified)
Marked response: > 100 µM

====

Test: Cytotoxicity against human MT4 cells after 72 hrs by celltiter-glo assay
Assay type: cell-based
Experimental Endpoint: CC50 at 72 h (µM)
Record the value in µM, omitting the unit from your answer.

Exam item: Which CC50 at 72 h is reported for this compound? C[C@H](NP(=O)(OC[C@H]1O[C@@H](n2cnc3c(=O)[nH]c(N)nc32)[C@](C)(O)[C@@H]1O)Oc1cccc2ccccc12)C(=O)O[C@@H](C)c1ccccc1 (stereo partly specified)
Marked response: 87

====

Assay: Metabolic stability in dog liver S9 fraction assessed as compound remaining at 10 uM after 30 mins by HPLC analysis in presence of NADP
Assay type: ADME, subcellular, Canis lupus familiaris
Conditions: read-out: Stability
Experimental Endpoint: remaining at 0.5 h, 10 µM (%)
Record the value in %, omitting the unit from your answer.

Exam item: Which remaining at 0.5 h, 10 µM is reported for this molecule? C[C@@]1(O)[C@H](O)[C@@H](COP(=O)(N[C@@H](Cc2ccccc2)C(=O)OCc2ccccc2)Oc2cccc3ccccc23)O[C@H]1n1cnc2c(=O)[nH]c(N)nc21 (stereo partly specified)
Marked response: 4

====

Assay: Metabolic stability in cynomolgus monkey plasma assessed as compound remaining at 1 ug/ml after 4 hrs
Format: ADME, cell-free, Macaca fascicularis
Details: read-out: Stability
Experimental Endpoint: remaining at 4 h, 1 ug/ml (%)
Record the value in %, omitting the unit from your answer.

>  <Compound>
CC(C)(NP(=O)(OC[C@H]1O[C@@H](n2cnc3c(=O)[nH]c(N)nc32)[C@](C)(O)[C@@H]1O)Oc1cccc2ccccc12)C(=O)OCc1ccccc1 (stereo partly specified)

>  <Numeric Readout>
83

$$$$

Exam item: Which remaining at 4 h, 1 ug/ml is reported for this compound? CSCC[C@H](NP(=O)(OC[C@H]1O[C@@H](n2cnc3c(=O)[nH]c(N)nc32)[C@](C)(O)[C@@H]1O)Oc1cccc2ccccc12)C(=O)OC(C)C (stereo partly specified)
Marked response: 93

Exam item: Which remaining at 4 h, 1 ug/ml is reported for this compound? C[C@H](NP(=O)(OC[C@H]1O[C@@H](n2cnc3c(=O)[nH]c(N)nc32)[C@](C)(O)[C@@H]1O)Oc1cccc2ccccc12)C(=O)O[C@@H](C)c1ccccc1 (stereo partly specified)
Marked response: 100

Exam item: Which remaining at 4 h, 1 ug/ml is reported for this compound? CC(C)[C@@H](NP(=O)(OC[C@H]1O[C@@H](n2cnc3c(=O)[nH]c(N)nc32)[C@](C)(O)[C@@H]1O)Oc1cccc2ccccc12)C(=O)OCc1ccccc1 (stereo partly specified)
Marked response: 80

Exam item: Which remaining at 4 h, 1 ug/ml is reported for this compound? C[C@H](NP(=O)(OC[C@H]1O[C@@H](n2cnc3c(=O)[nH]c(N)nc32)[C@](C)(O)[C@@H]1O)Oc1cccc2ccccc12)C(=O)OC1CCCCC1 (stereo partly specified)
Marked response: 100

Exam item: Which remaining at 4 h, 1 ug/ml is reported for this compound? CC(OC(=O)[C@H](C)NP(=O)(OC[C@H]1O[C@@H](n2cnc3c(=O)[nH]c(N)nc32)[C@](C)(O)[C@@H]1O)Oc1cccc2ccccc12)c1ccccc1 (mixture of isomers)
Marked response: 88

====

Assay: Metabolic stability in dog plasma assessed as compound remaining at 1 ug/ml after 30 mins
Assay type: ADME, cell-free, Canis lupus familiaris
Settings: read-out: Stability
Experimental Endpoint: remaining at 0.5 h, 1 ug/ml (%)
Record the value in %, omitting the unit from your answer.

Examples from the recorded data:
>  <Compound>
C[C@H](NP(=O)(OC[C@H]1O[C@@H](n2cnc3c(=O)[nH]c(N)nc32)[C@](C)(O)[C@@H]1O)Oc1cccc2ccccc12)C(=O)OCc1ccccc1 (some centres undefined)

>  <Experimental Endpoint>
remaining at 0.5 h, 1 ug/ml

>  <Display Unit>
%

>  <Numeric Readout>
67

$$$$
>  <Compound>
CCCCOC(=O)[C@H](C)NP(=O)(OC[C@H]1O[C@@H](n2cnc3c(=O)[nH]c(N)nc32)[C@](C)(O)[C@@H]1O)Oc1cccc2ccccc12 (some centres undefined)

>  <Experimental Endpoint>
remaining at 0.5 h, 1 ug/ml

>  <Display Unit>
%

>  <Numeric Readout>
95

$$$$
>  <Compound>
CSCC[C@H](NP(=O)(OC[C@H]1O[C@@H](n2cnc3c(=O)[nH]c(N)nc32)[C@](C)(O)[C@@H]1O)Oc1cccc2ccccc12)C(=O)OC(C)C (some centres undefined)

>  <Experimental Endpoint>
remaining at 0.5 h, 1 ug/ml

>  <Display Unit>
%

>  <Numeric Readout>
100

$$$$
>  <Compound>
C[C@H](NP(=O)(OC[C@H]1O[C@@H](n2cnc3c(=O)[nH]c(N)nc32)[C@](C)(O)[C@@H]1O)Oc1cccc2ccccc12)C(=O)OC1CCCCC1 (some centres undefined)

>  <Experimental Endpoint>
remaining at 0.5 h, 1 ug/ml

>  <Display Unit>
%

>  <Numeric Readout>
100

$$$$
>  <Compound>
CC(C)(NP(=O)(OC[C@H]1O[C@@H](n2cnc3c(=O)[nH]c(N)nc32)[C@](C)(O)[C@@H]1O)Oc1cccc2ccccc12)C(=O)OCc1ccccc1 (some centres undefined)

>  <Experimental Endpoint>
remaining at 0.5 h, 1 ug/ml

>  <Display Unit>
%

>  <Numeric Readout>
100

$$$$
>  <Compound>
CC(C)[C@H](NP(=O)(OC[C@H]1O[C@@H](n2cnc3c(=O)[nH]c(N)nc32)[C@](C)(O)[C@@H]1O)Oc1cccc2ccccc12)C(=O)OCC(C)(C)C (some centres undefined)

>  <Experimental Endpoint>
remaining at 0.5 h, 1 ug/ml

>  <Display Unit>
%

>  <Numeric Readout>
79

$$$$

Exam item: Which remaining at 0.5 h, 1 ug/ml is reported for this compound? CC(C)[C@H](NP(=O)(OC[C@H]1O[C@@H](n2cnc3c(=O)[nH]c(N)nc32)[C@](C)(O)[C@@H]1O)Oc1cccc2ccccc12)C(=O)OCc1cccc(Cl)c1 (some centres undefined)
Marked response: 90

Exam item: Which remaining at 0.5 h, 1 ug/ml is reported for this compound? CCCCCOC(=O)[C@H](C)NP(=O)(OC[C@H]1O[C@@H](n2cnc3c(=O)[nH]c(N)nc32)[C@](C)(O)[C@@H]1O)Oc1cccc2ccccc12 (some centres undefined)
Marked response: 98

Exam item: Which remaining at 0.5 h, 1 ug/ml is reported for this compound? CC(OC(=O)[C@@H](NP(=O)(OC[C@H]1O[C@@H](n2cnc3c(=O)[nH]c(N)nc32)[C@](C)(O)[C@@H]1O)Oc1cccc2ccccc12)C(C)C)c1ccccc1 (some centres undefined)
Marked response: 100

Exam item: Which remaining at 0.5 h, 1 ug/ml is reported for this compound? C[C@H](NP(=O)(OC[C@H]1O[C@@H](n2cnc3c(=O)[nH]c(N)nc32)[C@](C)(O)[C@@H]1O)Oc1cccc2ccccc12)C(=O)O[C@@H](C)c1ccccc1 (some centres undefined)
Marked response: 97

Exam item: Which remaining at 0.5 h, 1 ug/ml is reported for this compound? CC(C)[C@@H](NP(=O)(OC[C@H]1O[C@@H](n2cnc3c(=O)[nH]c(N)nc32)[C@](C)(O)[C@@H]1O)Oc1cccc2ccccc12)C(=O)OCc1ccccc1 (some centres undefined)
Marked response: 69
